MEASURED_ON: human recombinant 5-HT2C receptor (Homo sapiens, UniProt P28335)
Construct: expressed in transfected cells; host or cells: Jump-In HEK cells (membrane preparation)
Sequence (P28335 33-458): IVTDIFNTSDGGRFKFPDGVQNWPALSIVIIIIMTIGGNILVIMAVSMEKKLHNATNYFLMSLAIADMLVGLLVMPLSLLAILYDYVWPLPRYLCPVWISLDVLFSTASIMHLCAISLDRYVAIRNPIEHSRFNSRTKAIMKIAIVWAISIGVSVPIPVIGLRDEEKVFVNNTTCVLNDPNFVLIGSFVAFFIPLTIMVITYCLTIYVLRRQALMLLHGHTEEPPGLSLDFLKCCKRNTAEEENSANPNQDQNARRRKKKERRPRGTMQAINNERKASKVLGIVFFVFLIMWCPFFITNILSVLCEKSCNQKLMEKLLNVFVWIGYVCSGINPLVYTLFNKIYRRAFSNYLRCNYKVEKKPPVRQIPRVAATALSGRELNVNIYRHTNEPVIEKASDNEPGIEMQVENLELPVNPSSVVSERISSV
TEST_NAME: Test Example 2: 5-HT2C receptor binding inhibition test ([3H]-Mesulergine; non-specific ligand Serotonin HCl)
MEASUREMENT_CONTEXT: human serotonin 5-HT2C receptor binding activity
RESULT_TYPE: Ki (nM)

Answered examples (5):
Request: Quick one: Ki of Cn1ncc(C#N)c1-c1nc(Nc2ccc(-c3ccc(Cl)cc3)cn2)c(F)cc1OCCO ?
Response: 5.29

Request: Quick one: Ki of COCc1nc(C)c(-c2cc(Nc3ncc(-c4cccc(F)c4F)cc3Cl)ncc2OCCO)c(C)n1 ?
Response: 0.623

Request: Quick one: Ki of Cn1ncc(Br)c1-c1cc(Nc2ccc(OCC(F)(F)F)cn2)ncc1OCCO ?
Response: 0.715

Request: Quick one: Ki of COC(=O)c1ccc(C)c(-c2cc(Nc3ncc(C(F)(F)F)cc3F)ncc2OCCO)c1 ?
Response: 58.2

Request: Quick one: Ki of Cn1ncc(C#N)c1-c1nc(Nc2ccc(-c3ccc(F)cc3)cn2)c(F)cc1OCCO ?
Response: 9.08

(P) Cn1ncc(Br)c1-c1cc(Nc2nc3ccc(F)cc3s2)c(Cl)cc1OCCO
(Q) Cc1nc(C)c(-c2cc(Nc3ncc(OC(F)(F)F)cc3Cl)ncc2OCCO)c(C)n1
Request: Higher Ki: P or Q ? Your answer should be the label attached to the chosen record.
Response: Q
(Q: 2.74 nM, P: 1.89 nM)

(P) COCc1nc(C)c(-c2cc(Nc3ncc(OCC(F)(F)C(F)(F)F)cc3Cl)ncc2OCCO)c(C)n1
(Q) COCc1nc(C)c(-c2cc(Nc3ncc(-c4cnn(C(F)(F)F)c4)cc3Cl)ncc2OCCO)c(C)n1
Request: Higher Ki: P or Q ? Your answer should be the label attached to the chosen record.
Response: Q
(Q: 2.53 nM, P: 1.76 nM)

(a) Cc1nc(C)c(-c2cc(Nc3ccc(-c4ccc(F)cc4)cn3)ncc2O[C@H](C)CO)c(C)n1
(b) COCc1nc(C)c(-c2cc(Nc3ncc(C(F)(F)F)cc3Cl)ncc2OCCO)c(C)n1
Request: Please indicate which item has the smaller measured Ki: a versus b Your answer should be the label attached to the chosen record.
Response: b
